Molecular target: Cathepsin B (Homo sapiens)
Experiment: Inhibition of recombinant human liver CatB using Z-FR-AMC as substrate by fluorescence assay
endpoint-label: Ki (µM)

line-notation | numeric-readout
N#CC1(NC(=O)CN(Cc2ccccc2)C(=O)c2ccc(-c3ccccc3)cc2)CC1 | 3.16

(I) N#CC1(NC(=O)[C@H](Cc2ccccc2)NC(=O)c2ccccc2)CC1
(II) Cn1nc(C(C)(C)C)cc1C(=O)N(CC(=O)NC1(C#N)CC1)Cc1ccccc1
Ask | Please state the entry with greater Ki among I and II . Refer to your chosen item by its label in the answer.
Reply | I

###

Biological target: Procathepsin L (Homo sapiens, UniProt P07711)
Sequence (P07711 whole entry): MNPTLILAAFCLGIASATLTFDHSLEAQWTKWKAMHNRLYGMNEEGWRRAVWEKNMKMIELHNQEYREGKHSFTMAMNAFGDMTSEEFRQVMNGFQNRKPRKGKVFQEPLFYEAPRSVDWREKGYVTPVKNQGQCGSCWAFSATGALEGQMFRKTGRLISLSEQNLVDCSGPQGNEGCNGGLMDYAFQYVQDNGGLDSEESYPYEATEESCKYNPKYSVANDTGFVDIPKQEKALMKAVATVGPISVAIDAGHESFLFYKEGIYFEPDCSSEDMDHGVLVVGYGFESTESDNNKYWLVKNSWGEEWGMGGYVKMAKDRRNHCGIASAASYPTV
Assay: Inhibition of recombinant human liver CatL using Z-FR-AMC as substrate by fluorescence assay
pKi: −log10 of the molar value.
endpoint-label: pKi

line-notation | pKi
N#CCNC(=O)CN(Cc1ccccc1)S(=O)(=O)c1cccc(Cl)c1 | 5.60

(A) N#CCNC(=O)CN(Cc1ccccc1)C(=O)c1ccc(-c2ccccc2)cc1
(B) Cn1nc(C(C)(C)C)cc1C(=O)N(CC(=O)N[C@H](C#N)Cc1ccccc1)Cc1ccccc1
(C) N#CCNC(=O)CN(Cc1ccccc1)C(=O)c1ccccc1
(D) N#CCNC(=O)CN(Cc1ccccc1)C(=O)c1cccc(I)c1
Ask | Order the entries by their reported pKi, beginning at the minimum. Your answer should be the labels, listed in the requested order.
Reply | A, D, B, C
(A: 5.00, D: 5.20, B: 5.50, C: 6.20)

###

Target: Cathepsin S (Homo sapiens, UniProt P25774)
Sequence (P25774 115-331 limits assumed): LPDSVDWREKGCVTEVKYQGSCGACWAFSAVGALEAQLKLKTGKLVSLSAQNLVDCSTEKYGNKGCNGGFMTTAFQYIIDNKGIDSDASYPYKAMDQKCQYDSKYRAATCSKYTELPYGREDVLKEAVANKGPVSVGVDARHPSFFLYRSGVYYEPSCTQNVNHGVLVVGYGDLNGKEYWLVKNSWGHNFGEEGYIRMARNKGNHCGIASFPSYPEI
Test: Inhibition of recombinant human liver CatS at 10 uM using Z-FR-AMC as substrate by fluorescence assay relative to control
endpoint-label: inhibition

Worked examples, 2 molecules total:
line-notation | inhibition
N#CC1(NC(=O)CN(Cc2ccccc2)C(=O)Cc2ccccc2)CC1 | > 95%
Cn1nc(C(C)(C)C)cc1C(=O)N(CC(=O)NCC#N)Cc1cccc(Cl)c1 | > 95%

Now consider a different molecule.
Ask | I am curious: what inhibition value has been reported for Cn1nc(C(C)(C)C)cc1C(=O)N(CC(=O)NC1(C#N)CC1)Cc1ccccc1 ?
Reply | > 95%
